Entries and their IC50
Biological target: FGFR3-BAIAP2L1 Ba/F3 (Homo sapiens)
Construct: host or cells: Ba/F3; the other entry of the earlier key: BAIAP2L1 (Q9UHR4, BAR/IMD domain-containing adapter protein 2-like 1)
Sequence (P22607 397-758 limits assumed): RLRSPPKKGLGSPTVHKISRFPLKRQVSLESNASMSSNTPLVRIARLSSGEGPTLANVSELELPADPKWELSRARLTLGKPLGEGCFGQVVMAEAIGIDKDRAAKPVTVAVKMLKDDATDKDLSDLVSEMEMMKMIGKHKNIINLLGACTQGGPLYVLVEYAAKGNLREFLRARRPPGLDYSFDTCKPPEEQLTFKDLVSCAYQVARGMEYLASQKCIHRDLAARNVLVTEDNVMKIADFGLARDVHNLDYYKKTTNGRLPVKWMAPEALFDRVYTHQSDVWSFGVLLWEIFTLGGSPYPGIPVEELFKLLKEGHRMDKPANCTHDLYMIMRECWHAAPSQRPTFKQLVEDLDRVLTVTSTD
Experiment: Ba/F3 cell viability assay (CellTiter-Glo 2.0)
Assay type: cell-based
Conditions: Ba/F3 FGFR3-BAIAP2L1 cells, 48 hours

Previously resolved entries follow.
# RECORD SMILES, MEASUREMENT LABEL, OBSERVED
records = [
    ("C[C@@H](Oc1ccc2[nH]nc(-c3cnc4c(c3)N(S(C)(=O)=O)CCO4)c2c1)c1c(Cl)cncc1Cl", "IC50", "0.1 to 100 nM"),
    ("C[C@@H](Oc1ccc2[nH]nc(-c3ccc(NC(=O)N4CCOCC4)nc3)c2c1)c1c(Cl)cncc1Cl", "IC50", "0.1 to 100 nM"),
    ("Cc1ncc(Cl)c([C@@H](C)Oc2ccc3[nH]nc(-c4ccc(N[C@H]5CCOC5)nc4)c3c2)c1Cl", "IC50", "0.1 to 100 nM"),
    ("Cc1cc(-c2n[nH]c3ccc(O[C@H](C)c4c(Cl)cncc4Cl)cc23)cnc1NC1CCOCC1", "IC50", "0.1 to 100 nM"),
    ("C[C@@H](Oc1ccc2[nH]nc(-c3cnc(N)c(OC(F)F)c3)c2c1)c1c(Cl)cncc1Cl", "IC50", "250 to 1000 nM"),
    ("C[C@@H](Oc1ccc2[nH]nc(-c3ccc4c(c3)C(=O)CC3(CCNCC3)O4)c2c1)c1c(Cl)cncc1Cl", "IC50", "0.1 to 100 nM"),
]

Quick check: IC50 of CNC(=O)c1ccc(-c2n[nH]c3ccc(O[C@H](C)c4c(Cl)cncc4Cl)cc23)cn1 ?
0.1 to 100 nM

###

Molecular target: FGFR4 (Homo sapiens)
Construct: made in house; host or cells: E. coli derived from BL21, infected with T7 phage
Sequence (P22455 22-802): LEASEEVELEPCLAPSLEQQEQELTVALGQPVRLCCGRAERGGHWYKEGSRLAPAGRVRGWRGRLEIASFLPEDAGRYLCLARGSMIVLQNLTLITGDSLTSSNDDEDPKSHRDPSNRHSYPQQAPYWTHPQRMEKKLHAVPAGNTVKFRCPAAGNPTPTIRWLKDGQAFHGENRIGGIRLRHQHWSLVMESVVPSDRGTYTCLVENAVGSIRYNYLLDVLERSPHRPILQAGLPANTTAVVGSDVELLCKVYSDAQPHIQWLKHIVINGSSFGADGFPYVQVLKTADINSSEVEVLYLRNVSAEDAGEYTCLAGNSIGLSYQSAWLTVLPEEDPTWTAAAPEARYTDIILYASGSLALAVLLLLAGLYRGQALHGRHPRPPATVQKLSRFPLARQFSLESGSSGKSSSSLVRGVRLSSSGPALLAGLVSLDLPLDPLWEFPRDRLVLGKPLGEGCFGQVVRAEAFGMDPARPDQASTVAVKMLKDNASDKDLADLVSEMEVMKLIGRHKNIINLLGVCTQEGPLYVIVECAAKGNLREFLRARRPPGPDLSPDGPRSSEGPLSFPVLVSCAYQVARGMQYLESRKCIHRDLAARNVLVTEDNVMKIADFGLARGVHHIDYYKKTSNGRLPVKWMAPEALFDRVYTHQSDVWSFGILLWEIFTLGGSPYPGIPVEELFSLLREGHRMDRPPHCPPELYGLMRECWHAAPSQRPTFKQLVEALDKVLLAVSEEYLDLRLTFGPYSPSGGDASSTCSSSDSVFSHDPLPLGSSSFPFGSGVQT
Assay: Kinase binding assay (kinase-tagged T7 phage, qPCR), Kd
Conditions: read-out: FGFR4 (Kd nM)
Method: Kinase-tagged T7 phage strains were prepared in an E. coli host derived from the BL21 strain. E. coli were grown to log-phase and infected with T7 phage and incubated with shaking at 32° C. until lysis. The lysates were centrifuged and filtered to remove cell debris. […] Test compounds were prepared as 111X stocks in 100% DMSO. Kds were determined using an 11-point 3-fold compound dilution series with three DMSO control points. […] The kinase concentration in the eluates was measured by qPCR. […]
MEASUREMENT LABEL: Kd

Previously resolved entries follow.
# COMPOUND, TEST SYSTEM, MEASUREMENT LABEL, OBSERVED
measured = [
    ("COc1cc2[nH]nc(-c3cc(C#N)c(OC)c(OC)c3)c2cc1O[C@H](C)c1c(C)cnnc1C", "FGFR4 (Homo sapiens)", "Kd", "0.1 to 100 nM"),
    ("COc1ncc(-c2n[nH]c3ccc(O[C@H](C)c4c(Cl)cncc4Cl)cc23)cc1N", "FGFR4 (Homo sapiens)", "Kd", "0.1 to 100 nM"),
    ("C[C@@H](Oc1ccc2[nH]nc(-c3ccc(C(N)=O)nc3)c2c1)c1c(Cl)cncc1Cl", "FGFR4 (Homo sapiens)", "Kd", "0.1 to 100 nM"),
    ("C[C@@H](Oc1ccc2[nH]nc(-c3cnc4c(c3)N(CC(F)(F)F)CCO4)c2c1)c1c(Cl)cncc1Cl [Example 139, 2,2,2-trifluoroacetate]", "FGFR4 (Homo sapiens)", "Kd", "> 1000 nM"),
    ("C[C@@H](Oc1ccc2[nH]nc(-c3cnc4c(c3)N(C(=O)CN(C)C)CCO4)c2c1)c1c(Cl)cncc1Cl", "FGFR4 (Homo sapiens)", "Kd", "0.1 to 100 nM"),
    ("Cc1cc(-c2n[nH]c3ccc(O[C@H](C)c4c(Cl)cnc(C)c4Cl)cc23)cnc1O[C@@H]1CCOC1", "FGFR4 (Homo sapiens)", "Kd", "0.1 to 100 nM"),
    ("Cc1cnnc(C)c1[C@@H](C)Oc1ccc2[nH]nc(-c3cc(C#N)cc(C4CC4)c3)c2c1", "FGFR4 (Homo sapiens)", "Kd", "0.1 to 100 nM"),
    ("Cc1ncc(Cl)c([C@@H](C)Oc2ccc3[nH]nc(-c4ccc(O[C@@H]5CCOC5)nc4)c3c2)c1Cl", "FGFR4 (Homo sapiens)", "Kd", "0.1 to 100 nM"),
]

Quick check: Kd of COc1cc(-c2n[nH]c3ccc(O[C@H](C)c4c(Cl)cncc4Cl)cc23)cc(C#N)c1OC ?
0.1 to 100 nM

Now the same for Cc1cnnc(C)c1[C@@H](C)Oc1ccc2[nH]nc(-c3cnc(O[C@H]4CCOC4)c(C#N)c3)c2c1
0.1 to 100 nM

Now the same for C[C@@H](Oc1ccc2[nH]nc(-c3cnc(N[C@H]4CCOC4)c(C#N)c3)c2c1)c1c(Cl)cncc1Cl
0.1 to 100 nM

Now the same for COc1cc2[nH]nc(-c3ccc(N(C)C)nc3)c2cc1O[C@H](C)c1c(Cl)cnc(C)c1Cl
0.1 to 100 nM

Now the same for COc1cc(OC(F)(F)F)cc(-c2n[nH]c3ccc(O[C@H](C)c4c(C)cnnc4C)cc23)c1
0.1 to 100 nM

Now the same for CC(C)N1CCOc2ncc(-c3n[nH]c4ccc(O[C@H](C)c5c(Cl)cncc5Cl)cc34)cc21
0.1 to 100 nM

Now the same for C[C@@H](Oc1ccc2[nH]nc(-c3ccc(NC(=O)CN(C)C)nc3)c2c1)c1c(Cl)cncc1Cl
0.1 to 100 nM

Now the same for C[C@@H](Oc1ccc2[nH]nc(-c3ccc(S(C)(=O)=O)nc3)c2c1)c1c(Cl)cncc1Cl
0.1 to 100 nM

Now the same for C[C@@H](Oc1ccc2[nH]nc(-c3ccc(N)nc3)c2c1)c1c(Cl)cncc1Cl
0.1 to 100 nM

Now the same for CNC(=O)c1ccc(-c2n[nH]c3ccc(O[C@H](C)c4c(Cl)cncc4Cl)cc23)cn1
0.1 to 100 nM

Now the same for CCN1CCC2(CCc3cc(-c4n[nH]c5ccc(O[C@H](C)c6c(Cl)cncc6Cl)cc45)ccc3O2)CC1
0.1 to 100 nM

Data provenance: patent US20240316022A1
